Value source: patent US6506780B2

Where a name gives a salt, the structure may show the parent alone.
Task for the reader: assign each of the following compounds its reported melting point.

Worked cases, answers included:
CN(CCC(Oc1ccc(C(=O)c2cc3ccccc3s2)cc1)c1ccc(Cl)cc1)CC(=O)O (centres unmarked) (as salt: salt)	101 to 112 °C
CN(CCC(Oc1ccc(C(=O)c2ccccc2)cc1)c1ccc(F)cc1)CC(=O)O (centres unmarked) (as salt: salt)	80 to 95 °C
COc1ccc(C(=O)c2ccc(OC(CCN(C)CC(=O)O)c3ccc(Cl)cc3)cc2)cc1 (centres unmarked) (as salt: salt)	60 to 70 °C
CN(CCC(Oc1ccc(C(=O)c2ccncc2)cc1)c1ccc(F)cc1)CC(=O)O (centres unmarked) (as salt: salt)	52 to 65 °C

# input for lookup
Data point: Cc1cnc(C(=O)c2ccc(OC(CCN(C)CC(=O)O)c3ccc(F)cc3)cc2)s1 (centres unmarked) (as salt: salt) ; melting point = 95 to 110 °C

###

Structures can show the parent of a compound that is named as a salt.
observable: melting point

Field: example entries. Status: answers known.
CN(CCC(Oc1ccc(C(=O)c2ccc(Cl)cc2)cc1)c1ccc(Cl)cc1)CC(=O)O (stereo not shown) (as salt: salt)	63 to 68 °C
CN(CCC(Oc1ccc(C(=O)c2ccc3ccccc3c2)cc1)c1ccc(F)cc1)CC(=O)O (stereo not shown) (as salt: salt)	87 to 97 °C
CN(CCC(Oc1ccc(S(=O)(=O)c2ccccc2)cc1)c1ccccc1)CC(=O)O (stereo not shown) (as salt: salt)	95 to 100 °C

Now for a further compound.
Measured melting point of Cc1cccnc1C(=O)c1ccc(OC(CCN(C)CC(=O)O)c2ccc(F)cc2)cc1 (stereo not shown) (as salt: salt) : 65 to 73 °C

###

Counter-ions that a name gives are not always drawn.
Exercise: for every item that follows, state its recorded melting point.

Some solved entries appear below for comparison.
CN(CCC(Oc1ccc(C(=O)c2c(F)cccc2F)cc1)c1ccc(F)cc1)CC(=O)O (stereo not shown) (as salt: salt)	77 to 87 °C
COc1ccc(C(=O)c2ccc(OC(CCN(C)CC(=O)O)c3ccc(F)cc3)cc2)cc1 (stereo not shown) (as salt: salt)	75 to 85 °C
CN(CCC(Oc1ccc(C(=O)c2ccccn2)cc1)c1ccc(F)cc1)CC(=O)O (stereo not shown) (as salt: salt)	68 to 80 °C

Please find the next compound below.
compound CN(CCC(Oc1ccc(C(=O)c2cc(C(F)(F)F)cc(C(F)(F)F)c2)cc1)c1ccc(F)cc1)CC(=O)O (stereo not shown) , melting point observed: 60 to 75 °C
